# test-method-notes: MITF-driven TRPM1 luciferase induction in melanoma cells – cell-based, SK-MEL-5, single point, primary screen (AID 588334);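 also: 0% = neutral control wells and 100% = parthenolide positive control wells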
# particulars: SK-MEL-5 TRPM1-promoter luciferase, 24 h; at 12.5 µM; stronger effect = higher value; % of positive control, neutral wells = 0
In all, about 300,000 compounds went through this assay and about 2,300 (0.77%) were called active. The entries come from a sample that favours actives as a whole.
measured-parameter: activation (%)
Lab book: enter the figure in %, no units written.

compound	activation / %
COc1cc(C(=O)OCc2cc(=O)n3ccsc3n2)ccc1OC(C)C	25
Cc1ccc(-c2cc(C(=O)N3CCc4ccccc4C3)no2)cc1	-5

Exam item: // query activation value for entry O=C(Cc1ccc(S(=O)(=O)N2CCOCC2)s1)Nc1ccc(Br)c(C(F)(F)F)c1
Marked response: 17.8

Exam item: Same question for CCc1ccc(NC(=O)Cn2ncn3c(cc4ccccc43)c2=O)cc1 please.
Marked response: -8.34

Exam item: Same question for Cc1cc2c(cc1C)NC1(C[C@H]3CCC(=O)N4CC[C@@H](C1)[C@@H]34)C(=NC(C)(C)CC(C)(C)C)N2 (stereo not given in full) please.
Marked response: -10

Exam item: Same question for O=C(O)C1CCCCC1C(=O)Nc1ccc(Cl)cc1 (stereo not given) please.
Marked response: 20.2

Exam item: Same question for N#CC(=C1CCCC1)c1nc(-c2ccc(Cl)cc2)cs1 please.
Marked response: 91.3

====

# test-method-notes: MITF-driven TRPM1 luciferase induction in melanoma cells – cell-based, SK-MEL-5, single point, primary screen (AID 588334);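 also: 0% = neutral control wells and 100% = parthenolide positive control wells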
# particulars: SK-MEL-5 TRPM1-promoter luciferase, 24 h; at 12.5 µM; stronger effect = higher value; % of positive control, neutral wells = 0
Among all 300,000 compounds or so, about 2,300 (0.77%) were called active. What follows is part of a selection rich in actives, with near analogues and random picks from the rest.
measured-parameter: activation (%)
Lab book: enter the figure in %, no units written.

Below are worked cases with known answers.
molecule	activation [%]
CSc1ccccc1OCc1cc(C(=O)N2C[C@H]3CC[C@H]2C3)no1	91.7
C=CCn1c(SCn2nnc3ccccc3c2=O)nnc1-c1ccc(Cl)cc1	-11
O=C1CC(c2ccccc2)=NN1c1ccc([N+](=O)[O-])cc1	29.1
O=C(c1cnn2ccccc12)N1CCc2ccccc21	91.5
NS(=O)(=O)c1ccc(CCNC(=O)c2ccc(Cl)c(S(=O)(=O)N3CCCCCC3)c2)cc1	-34.2

Exam item: // query activation value for entry O=C1C=C(NS(=O)(=O)c2ccccc2)C(=O)c2ccccc21
Marked response: -65.5

Exam item: Same question for Cc1cccc(N2O[C@H]3C=CC2CCCC3)n1 please.
Marked response: 63.6

Exam item: Same question for O=S(=O)(Cc1ccc(Cl)cc1Cl)c1ccc(Cl)cc1 please.
Marked response: 16.2

Exam item: Same question for Cc1cc(OCCCC(=O)Nc2cc(S(=O)(=O)N3CCOCC3)ccc2N2CCOCC2)ccc1Cl please.
Marked response: 2.58

Exam item: Same question for CN(C(=O)c1cccc(NC(=O)Cc2ccc(NC(=O)C3CCCN(C(=O)C4CC4)C3)cc2)c1)C1CC1 (configuration not stated) please.
Marked response: -7.94

Exam item: Same question for Cc1nn(-c2ccccc2)c2c1C(c1cccc([N+](=O)[O-])c1)N(c1ccccc1)C(=O)N2 (configuration not stated) please.
Marked response: -8.33

====

# test-method-notes: MITF-driven TRPM1 luciferase induction in melanoma cells – cell-based, SK-MEL-5, single point, primary screen (AID 588334);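 also: 0% = neutral control wells and 100% = parthenolide positive control wells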
# particulars: SK-MEL-5 TRPM1-promoter luciferase, 24 h; at 12.5 µM; stronger effect = higher value; % of positive control, neutral wells = 0
The whole screen tested about 300,000 compounds, of which about 2,300 (0.77%) were called active. This excerpt belongs to a sample that is enriched for actives.
measured-parameter: activation (%)
Lab book: enter the figure in %, no units written.

compound	observed-measurement
CCCCNCCS(=O)(=O)NCc1ccccc1	11.7
Cc1cc(/C=C2\SC(=O)N(C)C2=O)c(C)n1-c1cccc(C(=O)O)c1	3.12
CC(C)OC(=O)CN1C(=O)C(=O)c2ccccc21	-5.18
CCCOC(=O)c1[nH]c2c(c1C)C(=O)CC(c1cccs1)C2 (stereo unspecified)	-44.3
CCCCN(C(=O)CSCc1ccc(C)cc1)c1c(N)n(Cc2ccccc2)c(=O)[nH]c1=O	15.5

Exam item: // query activation value for entry S=C(Nc1ccccc1)Nc1ccc2ccccc2c1
Marked response: 1.98

====

# test-method-notes: MITF-driven TRPM1 luciferase induction in melanoma cells – cell-based, SK-MEL-5, single point, primary screen (AID 588334);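 also: 0% = neutral control wells and 100% = parthenolide positive control wells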
# particulars: SK-MEL-5 TRPM1-promoter luciferase, 24 h; at 12.5 µM; % of positive control, neutral wells = 0
The whole screen tested about 300,000 compounds, of which about 2,300 (0.77%) were called active.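 The calls were made as follows: active = mean activation of at least 80% with every replicate also reaching 80%; inconclusive = mean reaches 80% but some replicate falls short; inactive = the rest.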 Many of the other results were omitted from the sample, so actives are more common in it than they were.
Select the matching outcome among True (active), False (inactive)

compound	classification
Nc1c(C(=O)Nc2ccc3c(c2)OCCO3)nnn1Cc1ccccc1	True
CCc1ccc(NC(=O)Cn2nnc(C(=O)NCc3ccc4c(c3)OCO4)c2N)cc1	False
Cc1ccc(NN=C2C(=O)OC(C)(C)OC2=O)c(C)c1	True
CC1CN(Cc2ccccc2)C(=S)NC1=O (configuration not stated)	False
C/C(CC(=O)Nc1cccc(F)c1)=N\NC(=O)C(=O)NC1CCCCC1	False
COc1ccccc1-c1sc2ccccc2c1C#CC1(O)CCCCC1	False
Cc1ccc(NC(=O)c2oc(=O)c3ccccc3c2-c2ccccc2)c(C)c1	False
CCCCOc1ccc(-c2nnc(-c3ccco3)o2)cc1	False
O=C(Nc1ccc2ccccc2c1[N+](=O)[O-])c1ccccc1	False
O=C(Nc1cccc(F)c1)NC1CCCc2ccccc21 (configuration not stated)	False

Exam item: I would be grateful if you could indicate the recorded call for COc1cc(/C=C2\Oc3ccc(C#Cc4ccc(O)cc4)cc3C2=O)cc(OC)c1 .
Marked response: False

Exam item: Same question for O=C(NCCSc1ccccc1)c1ccco1 please.
Marked response: False

====

# test-method-notes: MITF-driven TRPM1 luciferase induction in melanoma cells – cell-based, SK-MEL-5, single point, primary screen (AID 588334);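 also: 0% = neutral control wells and 100% = parthenolide positive control wells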
# particulars: SK-MEL-5 TRPM1-promoter luciferase, 24 h; at 12.5 µM; stronger effect = higher value; % of positive control, neutral wells = 0
The campaign covered roughly 300,000 compounds. About 2,300 (0.77%) were called active. Only a selection was taken, and actives are over-represented in it overall.
measured-parameter: activation (%)
Lab book: enter the figure in %, no units written.

Below are worked cases with known answers.
compound	activation, %
CC(=O)Nc1ccc(-c2csc(NC=C3C(=O)OC(C)(C)OC3=O)n2)cc1	8.13
COc1ccc(Cn2cc(CN3CCS(=O)(=O)N(Cc4ccc(-c5cccc(Cl)c5)cc4)C(C)C3=O)nn2)cc1 (stereo not drawn)	0.982
COc1ccc(Nc2ncnc3sc(C)cc23)cc1	68.5

Exam item: // query activation value for entry CCOC(=O)c1nc(Nc2ccc(C(=O)OC)cc2)c2ccccc2n1
Marked response: 8.95

Exam item: Same question for COC(=O)c1ccc(Nc2ncnc3sccc23)cc1 please.
Marked response: 93.3

Exam item: Same question for COc1ccc(CC(=O)NC(C)c2ccc(Cl)c(Cl)c2)cc1S(=O)(=O)N1CCOCC1 (stereo not drawn) please.
Marked response: 6.68

Exam item: Same question for CCCCNc1c(-c2ccc(OC)c(Sc3ccc(OC)cc3)c2)nc2ccc(Cl)cn12 please.
Marked response: 4.02

Exam item: Same question for O=C(O)c1ccc(S(=O)(=O)c2ccccc2)s1 please.
Marked response: -11

====

# test-method-notes: MITF-driven TRPM1 luciferase induction in melanoma cells – cell-based, SK-MEL-5, single point, primary screen (AID 588334);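 also: 0% = neutral control wells and 100% = parthenolide positive control wells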
# particulars: SK-MEL-5 TRPM1-promoter luciferase, 24 h; at 12.5 µM; % of positive control, neutral wells = 0
In all, about 300,000 compounds went through this assay and about 2,300 (0.77%) were called active.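 How the source made its calls: active means mean activation of at least 80% with every replicate also reaching 80%; inconclusive means mean reaches 80% but some replicate falls short; inactive means the rest.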 Many of the other results were omitted from the sample, so actives are more common in it than they were.
Select the matching outcome among active, inactive

Worked examples follow.
compound	classification
O=c1ccn([C@@H]2O[C@H](CNS(=O)(=O)c3cc4ccccc4s3)[C@@H](O)[C@H]2O)c(=O)[nH]1	inactive
CCc1ccc(C(=O)COC(=O)c2ccco2)cc1	active
Cc1ccc2cc(/C=N/NC(=O)[C@@H]3CCCN3)c(Cl)nc2c1	inactive
C1=C(CCNc2ncnc3c2cnn3-c2ccccc2)CCCC1	active

Exam item: I would be grateful if you could indicate the recorded call for CCOC(=O)C1=CN(Cc2ccc(Br)cc2)S(=O)(=O)N(C)C1C (stereo not drawn) .
Marked response: inactive

Exam item: Same question for O=[N+]([O-])c1ccc(COc2ccccc2CN2CCOCC2)cc1 please.
Marked response: inactive

Exam item: Same question for CCCNC(=O)c1c(Cl)cnn1-c1ccc(C)cc1 please.
Marked response: inactive

Exam item: Same question for COc1cc(NC(=O)COC(=O)c2cc(S(=O)(=O)N3CCOCC3)ccc2F)cc(OC)c1 please.
Marked response: inactive

Exam item: Same question for Cc1ccc(CSc2nnc(-c3cnccn3)n2C)cc1 please.
Marked response: inactive

Exam item: Same question for O=C(NN=Cc1ccccc1O)NN=Cc1ccccc1O please.
Marked response: inactive

Exam item: Same question for CC(C)(C)c1ccc(/C=C/C(=O)Nc2ncccn2)cc1 please.
Marked response: active

Exam item: Same question for O=C(OCC(=O)N1CCCC1)c1ccco1 please.
Marked response: inactive

Exam item: Same question for CC(C)(C)c1ccc(/C=C/C(=O)NCCCn2ccnc2)cc1 please.
Marked response: inactive

Exam item: Same question for Cc1ccnc(NC(=O)c2ccc(NC(=O)c3ccco3)cc2)c1 please.
Marked response: active

Exam item: Same question for Oc1ccc(-n2nnnc2SCc2c(F)cccc2Cl)cc1 please.
Marked response: inactive

Exam item: Same question for CCN(CC)c1ccc(C(=O)OCC(=O)c2ccco2)cc1 please.
Marked response: active

Exam item: Same question for CCCCc1ccc(NC(=S)NCCCN2CCOCC2)cc1 please.
Marked response: inactive

Exam item: Same question for Cc1ccc(OCc2cc(C(=O)N(C)CCn3ccnc3C)no2)cc1C please.
Marked response: inactive

Exam item: Same question for CCOc1ccc(C(=O)Nc2cccc(-c3ccc4nncn4n3)c2)cc1 please.
Marked response: inactive

Exam item: Same question for CSc1ccccc1NC(=O)c1cc(Cl)sc1Cl please.
Marked response: inactive

Exam item: Same question for O=C(CC1Sc2ccccc2NC1=O)NNc1ccc(Cl)c(Cl)c1 (stereo not drawn) please.
Marked response: inactive

Exam item: Same question for Cc1nn2cc(-c3ccc(Cl)cc3)cnc2c1Br please.
Marked response: active

Exam item: Same question for O=C(Nc1ccc(O)cc1)c1ccc(NC(=O)c2ccco2)cc1 please.
Marked response: inactive
